Tested on: SMN2 CJ mRNA
Test method notes: Gene panel canonical junction qPCR assay, SMN2
Format: cell-based
Particulars: Homo sapiens, larger gene panel, read-out: SMN2 IC50 (decrease in CJ mRNA levels)
pIC50: −log10 of the molar value.
pIC50: recorded values

// known answers, use as guide
In [3]: df
Out[3]:
                                   compound  reported_value
0  Cc1cn2nc(-c3cn4c(=O)cc(N5CCNC6(CC6)C5)nc4s3)cc(C)c2n1 [Compound 212]    5.00 to 6.00
1  Cc1cc(-c2cc3ncn(C4CCNCC4)c(=O)c3s2)cc2cn(C)nc12 [Compound 236]          > 7.00
2  Cc1cn2cc(-n3cnc4nc(N5CCN(C)CC5)sc4c3=O)cc(C(F)(F)F)c2n1 [Compound 230]          < 5.00
3  Cc1cn2cc(-c3nn4c(=O)cc(N5CCN(C)CC5)nc4s3)cc(F)c2n1 [Compound 217]    5.00 to 6.00
4  Cc1cc(-c2cc(=O)n3cc(N4CCN(C)CC4)sc3n2)cc2cn(C)nc12 [Compound 109]          < 5.00
5  Cc1cn2cc(-c3cc4ccn(C5CCN(C)CC5)c(=O)c4s3)cc(F)c2n1 [Compound 808]          > 7.00

Now consider a different compound.
Give recorded pIC50. COc1cc(-c2cc3ncn(C4CCNCC4)c(=O)c3s2)cnn1 [Compound 260]
5.00 to 6.00

---

System: Target C CJ mRNA
Test method notes: Gene panel canonical junction qPCR assay, Target C
Type: cell-based
Particulars: Homo sapiens, larger gene panel, read-out: Target C IC50 (decrease in CJ mRNA levels)
Reported IC50 values for a set of molecules

Guide cases for IC50, answers given:
                                   molecule  endpoint  reported_value
0  Cc1cn2nc(-c3cc(=O)n4cc(N5CCNC6(CC6)C5)sc4n3)cc(C)c2n1      IC50      1 to 10 µM
1  Cc1cn2cc(-n3cnc4nc(N5CCNCC5)sc4c3=O)cc(C(F)(F)F)c2n1      IC50         > 10 µM
2  Cc1cn2cc(-c3cc4ncn([C@H]5CCN[C@H](C)C5)c(=O)c4s3)cc(F)c2n1 (relative stereo)      IC50      1 to 10 µM
3  Cc1cc(-c2cc3ccn(C4CCN(C)CC4)c(=O)c3s2)cc2cn(C)nc12      IC50      1 to 10 µM
4  Cc1cn2nc(-c3cc4ncn(C5CCN(C)CC5)c(=O)c4s3)cc(C)c2n1      IC50         > 10 µM
5  Cc1cn2cc(-c3cc(=O)n4nc(N5CCN(C)CC5)sc4n3)cc(F)c2n1      IC50      1 to 10 µM
6  Cc1cn2cc(-c3cc4ncn(C5CNCCC5=O)c(=O)c4s3)cc(F)c2n1 (centres unmarked)      IC50         > 10 µM

The record that follows has no IC50 shown yet.
Indicate its recorded IC50; the molecule in question is "Cc1cn2nc(-c3nc4ncn(C5CCNCC5)c(=O)c4s3)cc(C)c2n1"
1 to 10 µM

---

Reported AC50 values for the following compounds.
Test system: HTT mRNA
Test method notes: Splicing RT-qPCR assay, HTT canonical (CJ) and alternative (AJ) junction mRNA
Type: cell-based
Particulars: Homo sapiens, increase in AJ mRNA, A673 or K562 cells, 24 hours treatment

Known AC50 results, listed for orientation:
>>> df
                                   compound  reported_value
0  Cc1cc(-c2cn3c(=O)cc(N4CCN(C)CC4)nc3s2)cc2cn(C)nc12 [Compound 183]      > 10000 nM
1  Cc1cc(-c2cc3ccn(C4CCN(C)CC4)c(=O)c3s2)cc2cn(C)nc12 [Compound 807]  100 to 1000 nM
2  Cc1cc(-c2cc3ncn(C4CCN(C)CC4)c(=O)c3s2)cc2cn(C)nc12 [Compound 237]  100 to 1000 nM

Give the reported value of AC50 for this record: Cc1cn2cc(-c3cn4c(=O)cc(N5CCNC6(CC6)C5)nc4s3)cc(F)c2n1 [Compound 208]
1000 to 10000 nM

---

System: Target C CJ mRNA
Test method notes: Gene panel canonical junction qPCR assay, Target C
Type: cell-based
Particulars: Homo sapiens, larger gene panel, read-out: Target C IC50 (decrease in CJ mRNA levels)
pIC50: −log10 of the molar value.
Endpoint: pIC50

In [3]: df
Out[3]:
                                   compound  reported_value
0  Cc1cn2nc(-c3nc4sc(N5CCNCC5)nc4c(=O)[nH]3)cc2c(C)n1    6.00 to 7.00
1  Cc1cn2cc(-c3cc4ncn(C5CCNCC5(F)F)c(=O)c4s3)cc(F)c2n1 (centres unmarked)          < 5.00
2  Cc1cn2cc(-c3cn4c(=O)cc(N5CCNC6(CC6)C5)nc4s3)cc(F)c2n1    5.00 to 6.00
3  Cn1cc2cc(-c3cc4ncn(C5CCNCC5)c(=O)c4s3)cc(F)c2n1    5.00 to 6.00
4  Cc1cn2nc(-c3nc4cnn(C5CCNCC5)c(=O)c4s3)cc(C)c2n1    6.00 to 7.00

Please give measured pIC50 of the following entry: "Cc1cn2cc(-c3cc(=O)n4nc(N5CCNC6(CC6)C5)sc4n3)cc(F)c2n1"
5.00 to 6.00

Given "Cc1cn2cc(-c3cc4ncn(N5CCNCC5)c(=O)c4s3)cc(F)c2n1" , respond with its pIC50.
5.00 to 6.00

For the compound "Cc1cn2cc(-c3cc4ncn([C@H]5CCNC[C@@H]5O)c(=O)c4s3)cc(F)c2n1" , report pIC50.
6.00 to 7.00

---

Test method notes: Cell Titer Glo 2.0 cell viability assay
Particulars: human, K562 cells
Listed below: GI50 at 72 h values for each entry.

Return the recorded GI50 at 72 h value; entry: "Cc1cn2cc(-n3cnc4nc(N5CCNCC5)sc4c3=O)cc(C(F)(F)F)c2n1"
> 10000 nM

Please report the measured GI50 at 72 h for "Cc1cn2cc(-c3cc4ncn(C5CCNCC5)c(=O)c4s3)ncc2n1"
1000 to 10000 nM

Answer with reported GI50 at 72 h of "Cc1cn2cc(-c3nc4cnn(C5CCNCC5)c(=O)c4s3)nc(C)c2n1"
100 to 1000 nM

Tell us which GI50 at 72 h value is on record for "Cc1cn2cc(-c3nn4c(=O)cc(N5CCN(C)CC5)nc4s3)cc(F)c2n1"
1000 to 10000 nM

Give the value of GI50 at 72 h reported for the following: "Cc1cn2cc(-c3cc4ccn(C5CCNCC5)c(=O)c4s3)cc(F)c2n1"
100 to 1000 nM

Answer with the recorded GI50 at 72 h for the compound listed here: "Cc1cn2cc(-c3cn4c(=O)cc(N5CCNCC5)nc4s3)cc(F)c2n1"
> 10000 nM

---

Parameter: IC50. Scope: all listed entries.
Tested on: HTT mRNA
Test method notes: Splicing RT-qPCR assay, HTT canonical (CJ) and alternative (AJ) junction mRNA
Assay type: cell-based
Particulars: Homo sapiens, decrease in CJ mRNA, A673 or K562 cells, 24 hours treatment
Procedure: Compounds described herein were used to modulate RNA transcript abundance in cells. The expression of a target mRNA was measured by detecting the formation of an exon-exon junction in the canonical transcript (CJ). A compound mediated exon-inclusion event was detected by observing an increase in formation of a new junction with an alternative exon (AJ). Real-time qPCR assays were used to detect these splicing switches and interrogate the potency of various compounds towards different target genes. […]

In [3]: df
Out[3]:
                         structure_notation  reported_value
0  Cc1cc(-c2cc3cnn(C4CCNCC4)c(=O)c3s2)cc2cn(C)nc12  100 to 1000 nM
1  Cc1cn2cc(-n3cnc4nc(N5CCN(C)CC5)sc4c3=O)cc(C(F)(F)F)c2n1      > 10000 nM
2  Cc1cn2cc(-c3nc4ncn(C5CCNCC5)c(=O)c4s3)cc(F)c2n1        < 100 nM

Kindly review the next molecule as well.
Supply IC50 measured with HTT mRNA for "Cc1cn2cc(-c3cc4ncn(C5=CCNCC5)c(=O)c4s3)cc(F)c2n1" .
100 to 1000 nM

---

We begin with a simple list: items and their reported IC50.
System: HTT mRNA
Test method notes: Splicing RT-qPCR assay, HTT canonical (CJ) and alternative (AJ) junction mRNA
Assay type: cell-based
Particulars: Homo sapiens, decrease in CJ mRNA, A673 or K562 cells, 24 hours treatment
Protocol: Compounds described herein were used to modulate RNA transcript abundance in cells. The expression of a target mRNA was measured by detecting the formation of an exon-exon junction in the canonical transcript (CJ). A compound mediated exon-inclusion event was detected by observing an increase in formation of a new junction with an alternative exon (AJ). Real-time qPCR assays were used to detect these splicing switches and interrogate the potency of various compounds towards different target genes. […]

These solved cases illustrate the format of a correct answer.
>>> df
                                   molecule  endpoint    reported_value
0  Cc1cn2nc(-c3cc4ncn(C5CCNCC5)c(=O)c4s3)cc2c(C)n1      IC50    100 to 1000 nM
1  Cc1cc(-c2cc3ncn(C4CCN(C)CC4)c(=O)c3s2)cc2cn(C)nc12      IC50    100 to 1000 nM
2  Cc1cc(-c2nn3c(=O)cc(N4CCN(C)CC4)nc3s2)cc2cn(C)nc12      IC50  1000 to 10000 nM
3  Cc1cn2nc(-c3cc4ccn(C5CCN(C)CC5)c(=O)c4s3)cc(C)c2n1      IC50  1000 to 10000 nM
4  Cc1cc(-c2cc3ncn(C4CCNCC4)c(=O)c3s2)cc2cn(C)nc12      IC50          < 100 nM
5  Cn1cc2cc(-c3cc4ncn(C5CCNCC5)c(=O)c4s3)c(F)cc2n1      IC50    100 to 1000 nM

Tell me its IC50 given "Cc1cn2nc(-c3nc4ncn(C5CCNCC5)c(=O)c4s3)cc(C)c2n1" as the entry.
100 to 1000 nM

Report IC50, nothing else, for this molecule: Cc1cn2cc(-c3cc4ncn(C5CNCCC5=O)c(=O)c4s3)cc(F)c2n1 (centres unmarked)
> 10000 nM

Origin of the recorded values: patent US20240366612A1
